src = PubChem BioAssay (NCI)

Overview of reported TGI across a group of compounds:
Tested on: MDA-MB-435
Assay: NCI tumour cell line growth inhibition, 48 h
Enter your answer as a number in µM; do not include the unit.

Solved cases below.
Cc1c(C)c(C)c(CSC(=N)N)c(C)c1C
31.3
Cc1ccc(C2CC(c3cccc(Nc4ccncc4)c3)=NN2c2ccc(Cl)cc2)cc1 (stereo not given)
2.97

## Input Which value of TGI has been reported for "CC1=C/C(=C(/c2ccc(O)c(C)c2)c2ccccc2C(=O)O)C=CC1=O" in the records?
## Output 33.3

====

Overview of reported TGI across a group of molecules:
Tested on: RXF 393 renal
Assay: NCI tumour cell line growth inhibition, 48 h

Solved cases below.
N#CC(C#N)=Cc1ccc(-c2ccc(-c3nc4ccccc4s3)cc2)s1
> 100 µM
C/C(CC(=O)Nc1ccc([N+](=O)[O-])cc1)=N/N=C(N)N
> 100 µM
COc1ccc(C2SC(C)C(=O)N2NC(=O)C(O)c2ccccc2)cc1 (centres undefined)
> 100 µM

Next:
## Input Which value of TGI has been reported for "COc1cc2c3c(n(CCCN4CCOCC4)c(=O)c2cc1OC)-c1cc2c(cc1C3=O)OCO2" in the records?
## Output > 66.6 µM

====

System: SK-MEL-28 melanoma
Assay: NCI tumour cell line growth inhibition, 48 h; in the data active means GI50 below about 0.43 µM; inactive means the rest
A correct response names exactly one class from t (active), f (inactive)

Solved cases below.
O=C1C=CC(=O)N1CCCCCCCCCCN1C(=O)C=CC1=O
f
CCN(CC)CCCC(C)Nc1ccnc2cc(Cl)c(SCc3ccccc3)cc12 (configuration not stated)
f
COc1ccc(OC)c2c3c(ncc12)-c1cc2c(cc1C3)OCO2
f
O=C1[C@H](c2ccccc2)C2c3ccccc3CCN12 (some centres not stated)
f
CCCNNC(=O)c1ccc(CNC(=O)/C=C/c2ccccc2)cc1
t
C#CCOc1c(OC)cc(C(=O)/C(C)=C/c2cccc(N=[N+]=[N-])c2)cc1OC
f

## Input Record request — test call for "O=C(Nc1cccc(-n2cc(-c3ccncc3)c(-c3ccc(O)c(Cl)c3)n2)c1)Nc1ccc(Cl)c(C(F)(F)F)c1"
## Output f

====

Overview of reported TGI across a group of molecules:
Tested on: MALME-3M melanoma
Assay: NCI tumour cell line growth inhibition, 48 h

Solved cases below.
c1ccc(-c2cc(-c3cc(-c4ccccc4)no3)on2)cc1
> 100 µM
Cc1ccc(OCCn2cc(Nc3ccccc3)c(=O)[nH]c2=O)cc1
> 100 µM
CC(C)C(/C=C/c1ccc(Cl)cc1)=N\NC(=S)NN
> 100 µM
CCCN1CN(C(C(=O)N[C@@H]2C(=O)N3C(C(=O)O)=C(C)CSC23)c2ccccc2)CSC1=S (stereo partly drawn)
> 100 µM
Cc1nn(C(=O)c2ccncc2)c2c1C(c1ccccc1O)SC(N)=N2 (stereo not drawn)
> 10 µM
CC1=NN(c2ccccc2)C(=O)C1C(=O)C(=O)Nc1ccc(C)cc1C (stereo not drawn)
> 100 µM
COc1cc([C@@H]2c3cc4c(cc3[C@H](O)[C@H]3COC(=O)[C@@H]23)OCO4)cc(OC)c1OC
> 100 µM
COc1cc([C@@H]2c3cc4c(cc3[C@@H](NC(=O)c3ccc([N+](=O)[O-])cc3)C3COC(=O)[C@@H]32)OCO4)cc(OC)c1O (stereo partly drawn)
4.89 µM

## Input Which value of TGI has been reported for Nc1nc(Cl)cc(NCC2(CO)CCC(OCc3ccccc3)C2)n1 (stereo not drawn) in the records?
## Output 97.2 µM

## Input Which value of TGI has been reported for "Cc1cccc2c(=O)c3c(sc12)c(NCCN)nc1ccccc13" in the records?
## Output 1.59 µM

## Input Which value of TGI has been reported for "[O-][N+]1=C(c2ccccc2)COc2ccccc21" in the records?
## Output > 100 µM

====

System: MCF7 breast
Experiment: NCI tumour cell line growth inhibition, 48 h
Where a SMILES comes first, the peptide text is derived from it. [ ]: non-standard residue; d: D form. Orn = NCCC[CH](N)C(=O)O
MEASURED_PROPERTY: GI50

Solved cases below.
COc1cccc(-c2cc(NCc3ccc4c(c3)OCO4)nc(N)n2)c1
76.5 nM
CCOC(=O)c1c2c(n3cccc(F)c13)C(=O)c1ncccc1C2=O
57.2 nM

Next:
## Input Which value of GI50 has been reported for CC(C)CC1NC(=O)C(CCCN)NC(=O)C(C(C)C)NC(=O)C2CCCN2C(=O)C(Cc2ccccc2)NC(=O)C(CC(C)C)NC(=O)C(CCCN)NC(=O)C(C(C)C)NC(=O)C2CCCN2C(=O)C(Cc2ccccc2)NC1=O (stereo not drawn) (cyclo(FPV[Orn]LFPV[Orn]L); configuration not given here) in the records?
## Output 10.9 nM

====

Tested on: LOX IMVI melanoma
Assay: NCI tumour cell line growth inhibition, 48 h
MEASURED_PROPERTY: TGI

C/C(=C\[C@H]1C[C@@H]([C@@H]2CC[C@]34C[C@]23C=C[C@@H]2[C@@]3(C)CC=C5C[C@@H](c6ccccc6)OC[C@]5(C)[C@@H]3C[C@@H](O)[C@]24C)C(=O)O1)CO
> 100 µM

## Input Which value of TGI has been reported for Cc1cc(-c2ccc(Cl)cc2)c(C#N)c(=S)n1C1OC(CO)C(O)C(O)C1O (stereo not given) in the records?
## Output > 100 µM

## Input Which value of TGI has been reported for Cc1cccc(C(O)c2ccccn2)c1O (stereo not given) in the records?
## Output > 100 µM

## Input Which value of TGI has been reported for "COc1ccc(OC)c(/C=C/c2cnnc3ccccc23)c1" in the records?
## Output > 10 µM

## Input Which value of TGI has been reported for CC(C)(C)C1=NN=C2c3ccccc3C(=O)C21 (stereo not given) in the records?
## Output > 100 µM

====

Tested on: SK-OV-3 ovarian
Assay: NCI tumour cell line growth inhibition, 48 h
Overview of reported TGI across a group of compounds:

## Input Which value of TGI has been reported for "O=C(Nc1ccc(Cl)cc1Cl)/C(Cl)=C1/Sc2ccccc2NC1=O" in the records?
## Output 80.4 µM

## Input Which value of TGI has been reported for Cc1cc(-c2ccc(Cl)cc2)c(C#N)c(=S)n1C1OC(CO)C(O)C(O)C1O (stereo unspecified) in the records?
## Output > 100 µM

## Input Which value of TGI has been reported for COC(=O)CCC(=O)C(C#N)c1ccc(Cl)cc1Cl (stereo unspecified) in the records?
## Output > 100 µM

====

Tested on: DU-145 prostate
Assay: NCI tumour cell line growth inhibition, 48 h
MEASURED_PROPERTY: TGI

CCCCC/C(=N\c1nc[nH]c1C(N)=O)OCC
> 100 µM

## Input Which value of TGI has been reported for "COc1ccc(-c2oncc2-c2cc(OC)c3c(c2)OCO3)cc1" in the records?
## Output > 100 µM

## Input Which value of TGI has been reported for Oc1ccc2c3c1OC1c4[nH]c5c(c4CC4(O)C(C2)N(CC2CC2)CC[C@]314)CC1(O)C2Cc3ccc(O)c4c3[C@@]1(CCN2CC1CC1)C5O4 (stereo partly drawn) in the records?
## Output > 100 µM

====

Tested on: OVCAR-5 ovarian
Experiment: NCI tumour cell line growth inhibition, 48 h
MEASURED_PROPERTY: TGI

Solved cases below.
CC1(c2nc3cc(Cl)c(Cl)cc3[nH]2)CCC(C(=O)O)C(C)(C)O1 (centres undefined)
> 100 µM
Cn1c(C2CC(C)(C)c3c2c2ccccc2n3C)cc2ccccc21 (centres undefined)
> 304 µM
COc1ccc2c(c1)N(CCC1CCCCN1C)c1ccccc1S2 (centres undefined)
31.2 µM

Next:
## Input Which value of TGI has been reported for CC1=C(C(=O)Nc2ccc(Cl)c(Cl)c2)C(c2cccc(O)c2)NC(=S)N1 (centres undefined) in the records?
## Output > 50 µM

====

Overview of reported TGI across a group of compounds:
Tested on: SK-MEL-5 melanoma
Assay: NCI tumour cell line growth inhibition, 48 h

CC(=O)O[C@@H]1CC(=O)O[C@@H]2C[C@@H](CC/C(Cl)=C/C/C=C\1C)O[C@@H]2CO
> 25 µM
Cc1cc(-c2ccc(Cl)cc2)c(C#N)c(=S)n1C1OC(CO)C(O)C(O)C1O (centres undefined)
> 100 µM
Cn1c(-c2ccccc2)c/c(=N\NS(C)(=O)=O)c2cc(S(=O)(=O)O)ccc21
> 100 µM

## Input Which value of TGI has been reported for Nc1nc(Cl)cc(NCC2(CO)CC(Cc3ccccc3)C2)n1 (centres undefined) in the records?
## Output > 41.9 µM

## Input Which value of TGI has been reported for "Cc1ccccc1Nc1cn(CCOc2ccccc2)c(=O)n(CCOc2ccccc2)c1=O" in the records?
## Output > 100 µM

## Input Which value of TGI has been reported for "O=C1CSc2ccncc2N1" in the records?
## Output > 100 µM

## Input Which value of TGI has been reported for CN(C)C1COC2Cc3ccccc3C1O2 (centres undefined) in the records?
## Output > 100 µM

## Input Which value of TGI has been reported for COC(=O)C1CCc2nnc(-c3cccnc3)n21 (centres undefined) in the records?
## Output > 100 µM

## Input Which value of TGI has been reported for "Cc1c(C)c2ccc(O)cc2[nH]c1=O" in the records?
## Output > 100 µM
